Origin of the recorded values: the supplement of paper PMC8728848

For each record, write down the corresponding glycan array binding signal (z-score).
# testedSystem: GalNAc(b1-4)Gal(b1-4)Glc
# protocolSummary: glycan array binding signal (z-score within array); higher = stronger binding
# runParameters: glycan notation: IUPAC condensed, linker removed
The entries come from a sample that favours the strongest signals as a whole.
Answer as a number with no unit attached.

I'd like to know its glycan array binding signal (z-score). The binder in question is RobpsCRA (Robinia pseudoacacia) (protein) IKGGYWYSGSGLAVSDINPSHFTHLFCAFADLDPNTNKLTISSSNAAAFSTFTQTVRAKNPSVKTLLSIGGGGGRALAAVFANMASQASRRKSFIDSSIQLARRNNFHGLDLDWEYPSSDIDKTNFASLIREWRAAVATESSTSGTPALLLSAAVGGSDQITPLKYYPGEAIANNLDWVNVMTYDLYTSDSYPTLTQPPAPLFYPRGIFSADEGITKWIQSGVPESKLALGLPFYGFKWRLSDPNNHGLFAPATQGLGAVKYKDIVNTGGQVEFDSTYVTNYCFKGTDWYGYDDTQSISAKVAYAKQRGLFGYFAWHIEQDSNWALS
0.371

Similarly, ERGIC1-EDTA (Homo sapiens), Q969X5 (protein) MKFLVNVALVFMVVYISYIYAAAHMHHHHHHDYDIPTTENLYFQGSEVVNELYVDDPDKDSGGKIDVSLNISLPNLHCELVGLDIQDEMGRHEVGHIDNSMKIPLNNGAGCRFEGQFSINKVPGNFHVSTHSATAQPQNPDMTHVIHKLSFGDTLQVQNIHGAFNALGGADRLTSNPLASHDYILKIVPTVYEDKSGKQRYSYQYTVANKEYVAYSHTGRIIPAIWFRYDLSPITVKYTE ?
-0.531

Similarly, XTP3-B-MRH2 (Homo sapiens), Q96DZ1 (protein) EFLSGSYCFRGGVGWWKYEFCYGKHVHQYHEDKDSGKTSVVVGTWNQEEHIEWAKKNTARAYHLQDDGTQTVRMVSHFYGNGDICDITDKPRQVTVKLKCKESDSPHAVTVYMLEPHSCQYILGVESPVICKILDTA ?
-0.842

Similarly, KISKRILTGKK [NK11 (Sus scrofa)] ?
-0.229

Similarly, Arath Fbox (Arabidopsis thaliana), NP_178341.1 (protein) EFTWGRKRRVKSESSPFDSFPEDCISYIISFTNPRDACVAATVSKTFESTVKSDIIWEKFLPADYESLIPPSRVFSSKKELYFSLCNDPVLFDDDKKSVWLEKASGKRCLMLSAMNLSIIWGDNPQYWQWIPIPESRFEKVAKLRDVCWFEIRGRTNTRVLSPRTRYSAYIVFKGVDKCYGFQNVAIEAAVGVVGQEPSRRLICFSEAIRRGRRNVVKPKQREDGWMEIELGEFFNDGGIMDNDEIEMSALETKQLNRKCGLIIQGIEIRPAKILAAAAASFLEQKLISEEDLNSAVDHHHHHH ?
0.06
